# measured target: Mu-type opioid receptor (Homo sapiens) + Delta-type opioid receptor (Homo sapiens) (UniProt P35372+P41143)
# Sequence (P35372 whole entry, looked up): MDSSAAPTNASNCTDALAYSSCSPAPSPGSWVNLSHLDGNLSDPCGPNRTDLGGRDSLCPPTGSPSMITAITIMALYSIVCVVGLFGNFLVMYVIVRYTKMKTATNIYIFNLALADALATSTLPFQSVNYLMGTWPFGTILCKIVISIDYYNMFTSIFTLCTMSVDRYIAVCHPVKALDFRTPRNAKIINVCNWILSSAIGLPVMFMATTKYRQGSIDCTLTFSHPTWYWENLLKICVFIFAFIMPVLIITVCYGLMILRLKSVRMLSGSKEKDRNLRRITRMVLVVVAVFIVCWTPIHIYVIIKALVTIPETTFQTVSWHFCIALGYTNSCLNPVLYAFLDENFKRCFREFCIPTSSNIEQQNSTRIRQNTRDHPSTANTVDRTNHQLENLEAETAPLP
# Sequence (P41143 whole entry, looked up): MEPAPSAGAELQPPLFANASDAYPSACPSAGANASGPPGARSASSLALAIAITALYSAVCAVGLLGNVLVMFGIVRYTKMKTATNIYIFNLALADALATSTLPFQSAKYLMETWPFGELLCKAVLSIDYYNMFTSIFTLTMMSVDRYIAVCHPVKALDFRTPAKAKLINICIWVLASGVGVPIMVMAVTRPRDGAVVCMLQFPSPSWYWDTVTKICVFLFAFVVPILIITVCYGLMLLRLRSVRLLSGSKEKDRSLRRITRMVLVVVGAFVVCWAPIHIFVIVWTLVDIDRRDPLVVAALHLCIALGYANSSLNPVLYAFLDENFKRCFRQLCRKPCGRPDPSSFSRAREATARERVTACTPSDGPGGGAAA
# procedure text: OPRM1-OPRD1 heterodimer beta-arrestin recruitment activators – cell-based, luminescence, counter-screen for MC4R biased agonist project (AID 602194);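 note: 100% = deltorphin B at 0.9 µM final and 0% = DMSO alone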
# measurement setup: U2OS PathHunter beta-arrestin, beta-gal luminescence; at 9.2 µM; active compounds read high; percent of deltorphin B response, DMSO zero
Among all 2,400 compounds or so, about 140 (5.8%) were called active. Not all results are given here.
measurement kind: activation (%)
Report the value in % with no unit label.

Please fill in: activation reported for CCCOc1ccc(C(=O)C(CCC(CNCC)C(=O)c2ccc(OCCC)cc2)CNCC)cc1 (configuration not stated) = 17.3

Please fill in: activation reported for `O=C(CCCn1c(SCC(=O)c2ccc(F)cc2)nc2ccccc2c1=O)NCc1ccco1` = 33.1

Please fill in: activation reported for `O=C(CCCCCN1C(=O)c2cccc3cccc(c23)C1=O)NCc1ccco1` = 9.12

Please fill in: activation reported for O=C(NC(c1ccc(-c2ccccc2)cc1)c1cnccn1)C1CCN(CCOc2ccc(Cl)cc2Cl)CC1 (configuration not stated) = 9.53

Please fill in: activation reported for `O=C(CCCN1C(=O)/C(=C/c2cccs2)SC1=S)Nc1ccc(O)cc1` = 1.75

Please fill in: activation reported for `COc1ccc(Nc2ncnc3sc(-c4ccccc4)cc23)c(OC)c1` = 3.93

Please fill in: activation reported for `Cc1ccc(-c2csc(SCC(=O)Nc3cc(C)on3)n2)cc1` = 7.19

Please fill in: activation reported for `CC(=O)Nc1ccc(NC(=O)c2sc3nc4c(c(-c5ccc(C)cc5)c3c2N)CCC4)cc1` = 14.3

Please fill in: activation reported for `CCOC(=O)c1c(-c2ccc(C)cc2C)csc1NC(=O)CSc1nnnn1C` = 7.04

Please fill in: activation reported for `Cc1ccc(-n2nc3cc(Cl)c(NC(=O)c4ccco4)cc3n2)cc1` = 0.83

Please fill in: activation reported for `Clc1ccc(Nc2ncnc3c2nnn3Cc2ccccc2)cc1` = 5.74

Please fill in: activation reported for `Cc1cccc(C)c1OC(=O)CSc1nnc(-c2ccccc2)o1` = 3.88

Please fill in: activation reported for `COc1ccc(-c2cc(NC=O)c3ncc(-c4ccccc4)n3c2)cc1OC` = 3.12

Please fill in: activation reported for `CN(C)CCCN(C(=O)c1ccc(S(=O)(=O)N2CCCCCC2)cc1)c1nc2ccc(Br)cc2s1` = 16.5

Please fill in: activation reported for `Cc1ccsc1/C=N/Nc1ccc(Cl)nn1` = 5.93

Please fill in: activation reported for `CCCCCCCCCCOC(=O)Cn1c(COc2cccc(OC)c2)[n+](C)c2ccccc21` = 19.9

Please fill in: activation reported for `COc1cc(NC(=O)c2cncc(-c3ccc(C#N)cc3)c2)cc(C(=O)Nc2cccc(C(F)(F)F)c2)c1` = 5.39

Please fill in: activation reported for `Cc1ccc(Nc2nnc(SCC(=O)c3cc4ccccc4o3)s2)cc1C` = 4.48

Please fill in: activation reported for `COc1c(Cl)cc(C(=O)Nc2ccc(Cl)cn2)cc1Cl` = 7.15

Please fill in: activation reported for `O=C(CCCN1C(=O)/C(=C\c2ccco2)SC1=S)Nc1cccc2ccccc12` = 4.3

Please fill in: activation reported for `Cc1nn2cc(-c3ccc(Cl)cc3)cnc2c1Br` = 2.93

Please fill in: activation reported for `O=C(/C=C/c1c(Cl)cccc1Cl)NCc1ccccc1` = 5.53
